Data credit: patent US4137380A

# ASSAY EXPLANATION: Dissociation constant in water (pKa value) of amine
# Assay type: physicochemical
# TEST SETTINGS: water
PARAMETER: pKa

>>> test_value("NCCCCCCCCCCCCN [dodecylene diamine]")
11.8

---

# ASSAY EXPLANATION: Dissociation constant in water (pKa value) of amine
# Format: physicochemical
# TEST SETTINGS: amine base, in water; read-out: pKa
Each entry below carries its reported pKa.
PARAMETER: pKa

>>> test_value("C=C(C)C(=O)OCCN(C)C [DMAEMA, dimethylaminoethylmethacrylate]")
5.4
>>> test_value("Cc1ccccc1N")
6

---

# ASSAY EXPLANATION: Relative water solubility of amine
# TEST SETTINGS: amine base
PARAMETER: Rel. W. Sol

>>> test_value("Nc1ccccc1 [aniline]")
"insoluble"
>>> test_value("Cc1ccccc1N [o-toluidine]")
"insoluble"
>>> test_value("NCCN [ethylene diamine]")
"high"
>>> test_value("C=C(C)C(=O)OCCN(C)C [DMAEMA, dimethylaminoethylmethacrylate]")
"high"
>>> test_value("NCCCCCCCCCCCCN [dodecylene diamine]")
"insoluble"
>>> test_value("CCN [ethylamine]")
"high"
